Measured target: FLT1 (Homo sapiens)
Construct: endogenous in cells
Assay comment: KAM-matrix competition in K562 lysate
Test parameters: KAM 0.001-10 uM, read-out: RB50 (the source's name)
Assay metric: IC50

{"Given smiles": "N#CCc1ccc(Nc2nc(NCCCN)cc(Nc3cc(C4CC4)[nH]n3)n2)cc1", "Test value": "> 10 µM"}

* * *

Measured target: TEC (Homo sapiens, UniProt P42680)
Construct: endogenous in cells
Sequence (P42680 whole entry): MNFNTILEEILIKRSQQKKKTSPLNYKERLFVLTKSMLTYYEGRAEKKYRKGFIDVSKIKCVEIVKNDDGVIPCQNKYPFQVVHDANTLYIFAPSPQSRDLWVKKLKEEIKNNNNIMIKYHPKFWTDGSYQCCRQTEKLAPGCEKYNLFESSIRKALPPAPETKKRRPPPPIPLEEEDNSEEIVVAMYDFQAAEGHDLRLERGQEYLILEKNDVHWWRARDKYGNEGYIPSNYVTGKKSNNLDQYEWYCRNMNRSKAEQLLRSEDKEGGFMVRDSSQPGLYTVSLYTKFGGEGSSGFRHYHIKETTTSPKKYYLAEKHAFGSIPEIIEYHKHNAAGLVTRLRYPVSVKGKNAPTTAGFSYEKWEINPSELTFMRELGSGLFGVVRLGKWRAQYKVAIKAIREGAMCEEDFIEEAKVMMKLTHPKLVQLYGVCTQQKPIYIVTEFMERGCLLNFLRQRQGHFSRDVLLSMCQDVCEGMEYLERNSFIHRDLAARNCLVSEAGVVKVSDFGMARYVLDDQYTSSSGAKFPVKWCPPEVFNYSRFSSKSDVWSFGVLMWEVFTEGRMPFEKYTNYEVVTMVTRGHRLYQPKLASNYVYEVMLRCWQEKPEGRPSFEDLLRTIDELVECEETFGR
Assay comment: KAM-matrix competition in K562 lysate
Test parameters: read-out: RB50 (the source's name)
pIC50: −log10 of the molar value.

{"Given smiles": "N#CCc1ccc(Nc2nc(NCCCN)cc(Nc3cc(C4CC4)[nH]n3)n2)cc1", "pIC50": 5.93}

* * *

Measured target: HIPK3 (Homo sapiens, UniProt Q9H422)
Construct: endogenous in cells
Sequence (Q9H422 whole entry): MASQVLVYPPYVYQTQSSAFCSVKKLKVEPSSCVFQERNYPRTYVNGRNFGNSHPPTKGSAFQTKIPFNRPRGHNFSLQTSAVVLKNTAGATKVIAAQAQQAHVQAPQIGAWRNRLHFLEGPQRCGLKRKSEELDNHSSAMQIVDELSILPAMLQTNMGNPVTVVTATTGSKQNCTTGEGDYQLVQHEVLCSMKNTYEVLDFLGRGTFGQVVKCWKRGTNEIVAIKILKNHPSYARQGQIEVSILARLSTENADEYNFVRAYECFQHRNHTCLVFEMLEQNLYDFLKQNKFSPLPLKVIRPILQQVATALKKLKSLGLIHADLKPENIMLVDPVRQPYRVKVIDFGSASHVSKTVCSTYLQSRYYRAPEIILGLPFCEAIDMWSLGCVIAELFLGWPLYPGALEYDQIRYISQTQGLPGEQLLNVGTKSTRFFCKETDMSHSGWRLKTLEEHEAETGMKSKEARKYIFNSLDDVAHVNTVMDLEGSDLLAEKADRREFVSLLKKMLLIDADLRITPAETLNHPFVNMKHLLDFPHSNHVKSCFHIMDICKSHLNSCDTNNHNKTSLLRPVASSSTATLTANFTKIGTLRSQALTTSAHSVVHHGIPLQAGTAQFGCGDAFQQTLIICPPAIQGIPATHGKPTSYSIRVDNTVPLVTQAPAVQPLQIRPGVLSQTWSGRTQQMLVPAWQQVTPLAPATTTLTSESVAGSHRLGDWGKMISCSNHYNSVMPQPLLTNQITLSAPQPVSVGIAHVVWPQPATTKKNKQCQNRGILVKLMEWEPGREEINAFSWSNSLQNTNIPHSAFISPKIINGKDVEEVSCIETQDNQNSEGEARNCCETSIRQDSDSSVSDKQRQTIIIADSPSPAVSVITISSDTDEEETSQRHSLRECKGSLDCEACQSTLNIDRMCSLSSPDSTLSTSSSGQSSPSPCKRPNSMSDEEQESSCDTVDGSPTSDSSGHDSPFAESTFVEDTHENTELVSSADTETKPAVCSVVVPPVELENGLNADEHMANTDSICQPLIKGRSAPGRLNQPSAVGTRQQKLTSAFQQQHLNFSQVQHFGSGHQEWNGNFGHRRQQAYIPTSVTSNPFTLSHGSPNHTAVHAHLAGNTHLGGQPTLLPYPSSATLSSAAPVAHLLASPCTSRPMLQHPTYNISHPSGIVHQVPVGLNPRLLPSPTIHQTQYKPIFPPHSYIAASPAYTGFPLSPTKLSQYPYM
Assay comment: KAM-matrix competition in K562 lysate
Test parameters: KAM 0.001-10 uM, read-out: RB50 (the source's name)
pIC50: −log10 of the molar value.

{"Given smiles": "N#CCc1ccc(Nc2nc(NCCCN)cc(Nc3cc(C4CC4)[nH]n3)n2)cc1", "pIC50": "< 5.00"}

* * *

Measured target: TTN (Homo sapiens, UniProt Q8WZ42)
Construct: endogenous in cells; host or cells: K562
Assay comment: KAM-matrix competition in K562 lysate
Format: binding
Test parameters: KAM 0.001-10 uM, read-out: RB50 (the source's name)
Assay metric: IC50

{"Compound": "N#CCc1ccc(Nc2nc(NCCCN)cc(Nc3cc(C4CC4)[nH]n3)n2)cc1 [KAM]", "Test value": "> 10 µM"}

* * *

Measured target: TAOK2 (Homo sapiens, UniProt Q9UL54)
Construct: endogenous in cells
Assay comment: KAM-matrix competition in K562 lysate
Test parameters: KAM 0.001-10 uM, read-out: RB50 (the source's name)

{"Given smiles": "N#CCc1ccc(Nc2nc(NCCCN)cc(Nc3cc(C4CC4)[nH]n3)n2)cc1", "IC50 (µM)": 6.63}

* * *

Measured target: PRKACA (Homo sapiens, UniProt P17612)
Construct: endogenous in cells
Assay comment: KAM-matrix competition in K562 lysate
Test parameters: KAM 0.001-10 uM, read-out: RB50 (the source's name)
pIC50: −log10 of the molar value.

{"Compound": "N#CCc1ccc(Nc2nc(NCCCN)cc(Nc3cc(C4CC4)[nH]n3)n2)cc1 [KAM]", "pIC50": "< 5.00"}

* * *

Measured target: PHKG1 (Homo sapiens, UniProt Q16816)
Construct: endogenous in cells
Assay comment: KAM-matrix competition in K562 lysate
Test parameters: read-out: RB50 (the source's name)
pIC50: −log10 of the molar value.

{"Molecule": "N#CCc1ccc(Nc2nc(NCCCN)cc(Nc3cc(C4CC4)[nH]n3)n2)cc1 [KAM]", "pIC50": 6.48}

* * *

Measured target: CAMK1 (Homo sapiens)
Construct: endogenous in cells; host or cells: K562
Sequence (Q14012 whole entry): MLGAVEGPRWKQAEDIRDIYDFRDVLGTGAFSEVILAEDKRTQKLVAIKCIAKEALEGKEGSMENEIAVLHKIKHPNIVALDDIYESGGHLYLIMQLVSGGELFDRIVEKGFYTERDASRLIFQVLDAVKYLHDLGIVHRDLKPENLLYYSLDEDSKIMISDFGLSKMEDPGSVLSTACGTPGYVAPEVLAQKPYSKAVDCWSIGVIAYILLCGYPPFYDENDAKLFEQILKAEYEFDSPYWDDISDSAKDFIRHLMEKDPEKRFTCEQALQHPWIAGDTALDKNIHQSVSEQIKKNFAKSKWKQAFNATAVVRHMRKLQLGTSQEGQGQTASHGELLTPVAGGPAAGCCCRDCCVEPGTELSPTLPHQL
Assay comment: KAM-matrix competition in K562 lysate
Format: binding
Test parameters: KAM 0.001-10 uM, read-out: RB50 (the source's name)

{"Given smiles": "N#CCc1ccc(Nc2nc(NCCCN)cc(Nc3cc(C4CC4)[nH]n3)n2)cc1", "IC50": "6.47 µM"}

* * *

Measured target: AURKA (Homo sapiens, UniProt O14965)
Construct: endogenous in cells
Assay comment: KAM-matrix competition in K562 lysate
Test parameters: read-out: RB50 (the source's name)
pIC50: −log10 of the molar value.
Assay metric: pIC50

{"Given smiles": "N#CCc1ccc(Nc2nc(NCCCN)cc(Nc3cc(C4CC4)[nH]n3)n2)cc1", "Assay metric": "pIC50", "Test value": 6.59}

* * *

Measured target: RIPK2 (Homo sapiens)
Construct: endogenous in cells
Assay comment: KAM-matrix competition in K562 lysate
Test parameters: read-out: RB50 (the source's name)
pIC50: −log10 of the molar value.

{"Given smiles": "N#CCc1ccc(Nc2nc(NCCCN)cc(Nc3cc(C4CC4)[nH]n3)n2)cc1", "Measured target": "RIPK2 (Homo sapiens)", "pIC50": 5.73}

* * *

Measured target: RET (Homo sapiens, UniProt P07949)
Construct: endogenous in cells
Sequence (P07949 29-1114): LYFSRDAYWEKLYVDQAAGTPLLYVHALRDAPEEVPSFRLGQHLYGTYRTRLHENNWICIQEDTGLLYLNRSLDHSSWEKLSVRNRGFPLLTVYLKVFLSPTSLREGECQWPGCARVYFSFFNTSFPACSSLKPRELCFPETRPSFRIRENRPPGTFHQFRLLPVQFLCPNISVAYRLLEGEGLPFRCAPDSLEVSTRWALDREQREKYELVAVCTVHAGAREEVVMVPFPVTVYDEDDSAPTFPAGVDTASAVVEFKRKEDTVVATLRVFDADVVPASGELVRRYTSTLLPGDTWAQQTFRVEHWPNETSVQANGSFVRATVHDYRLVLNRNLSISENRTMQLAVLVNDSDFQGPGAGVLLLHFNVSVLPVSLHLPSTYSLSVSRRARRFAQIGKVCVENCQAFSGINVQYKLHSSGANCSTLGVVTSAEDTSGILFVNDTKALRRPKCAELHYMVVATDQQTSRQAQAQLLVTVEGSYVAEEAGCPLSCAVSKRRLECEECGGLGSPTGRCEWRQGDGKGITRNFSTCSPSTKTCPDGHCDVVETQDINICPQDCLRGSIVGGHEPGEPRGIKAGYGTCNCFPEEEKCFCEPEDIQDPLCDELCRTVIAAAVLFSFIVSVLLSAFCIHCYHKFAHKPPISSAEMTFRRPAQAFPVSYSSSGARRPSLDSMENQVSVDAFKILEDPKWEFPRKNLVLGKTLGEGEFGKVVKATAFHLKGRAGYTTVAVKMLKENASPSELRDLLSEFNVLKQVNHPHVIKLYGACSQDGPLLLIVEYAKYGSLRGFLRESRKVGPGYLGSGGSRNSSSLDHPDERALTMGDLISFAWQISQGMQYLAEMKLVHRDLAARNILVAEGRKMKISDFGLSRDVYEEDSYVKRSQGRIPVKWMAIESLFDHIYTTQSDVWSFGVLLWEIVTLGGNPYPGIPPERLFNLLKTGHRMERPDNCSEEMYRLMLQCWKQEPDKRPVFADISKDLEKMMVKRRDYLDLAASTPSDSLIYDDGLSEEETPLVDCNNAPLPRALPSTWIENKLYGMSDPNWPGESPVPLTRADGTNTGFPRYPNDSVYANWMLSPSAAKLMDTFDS
Assay comment: KAM-matrix competition in K562 lysate
Test parameters: read-out: RB50 (the source's name)
Assay metric: IC50 (µM)

{"Given smiles": "N#CCc1ccc(Nc2nc(NCCCN)cc(Nc3cc(C4CC4)[nH]n3)n2)cc1", "Measured target": "RET (Homo sapiens, UniProt P07949)", "Assay metric": "IC50", "Test value": 0.908}

* * *

Measured target: TNIK (Homo sapiens, UniProt Q9UKE5)
Construct: K562 cell pellets were thawed on ice and resuspended in cold Lysis buffer; endogenous in cells
Assay comment: KAM-matrix competition in K562 lysate
Test parameters: read-out: RB50 (the source's name)

{"Given smiles": "N#CCc1ccc(Nc2nc(NCCCN)cc(Nc3cc(C4CC4)[nH]n3)n2)cc1", "IC50 (nM)": 646}

* * *

Measured target: MAPK9 (Homo sapiens, UniProt P45984)
Construct: endogenous in cells; host or cells: K562
Sequence (P45984 whole entry): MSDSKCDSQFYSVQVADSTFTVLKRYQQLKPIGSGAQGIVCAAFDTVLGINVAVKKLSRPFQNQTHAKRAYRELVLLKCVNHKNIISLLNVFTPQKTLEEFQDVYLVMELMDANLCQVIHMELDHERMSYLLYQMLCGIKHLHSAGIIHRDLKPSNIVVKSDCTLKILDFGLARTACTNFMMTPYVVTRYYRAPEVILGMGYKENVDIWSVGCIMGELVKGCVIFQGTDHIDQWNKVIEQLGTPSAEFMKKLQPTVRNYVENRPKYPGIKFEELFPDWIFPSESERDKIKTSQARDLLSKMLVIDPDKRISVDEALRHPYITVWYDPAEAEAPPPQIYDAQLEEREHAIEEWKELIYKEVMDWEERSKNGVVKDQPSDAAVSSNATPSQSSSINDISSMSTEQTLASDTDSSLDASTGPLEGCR
Assay comment: KAM-matrix competition in K562 lysate
Assay type: binding
Test parameters: read-out: RB50 (the source's name)

{"Given smiles": "N#CCc1ccc(Nc2nc(NCCCN)cc(Nc3cc(C4CC4)[nH]n3)n2)cc1", "Value unit": "µM", "IC50": 2.07}

* * *

Measured target: KIT (Homo sapiens, UniProt P10721)
Construct: endogenous in cells
Assay comment: KAM-matrix competition in K562 lysate
Test parameters: KAM 0.001-10 uM, read-out: RB50 (the source's name)

{"Given smiles": "N#CCc1ccc(Nc2nc(NCCCN)cc(Nc3cc(C4CC4)[nH]n3)n2)cc1", "IC50": "> 10 µM"}

* * *

Measured target: TRIM28 (Homo sapiens)
Construct: endogenous in cells; host or cells: K562
Assay comment: Imatinib-matrix competition in K562 lysate
Format: binding
Test parameters: read-out: RB50 (the source's name)
Assay metric: IC50

{"Compound": "Cc1ccc(NC(=O)c2ccc(CN3CCN(C)CC3)cc2)cc1Nc1nccc(-c2cccnc2)n1 [Imatinib]", "Test value": "> 10 µM"}

* * *

Measured target: PRKDC (Homo sapiens)
Construct: endogenous in cells; host or cells: K562
Assay comment: KAM-matrix competition in K562 lysate
Type: binding
Test parameters: KAM 0.001-10 uM, read-out: RB50 (the source's name)
pIC50: −log10 of the molar value.

{"Given smiles": "N#CCc1ccc(Nc2nc(NCCCN)cc(Nc3cc(C4CC4)[nH]n3)n2)cc1", "Measured target": "PRKDC (Homo sapiens)", "pIC50": "< 5.00"}

* * *

Measured target: MAPKAPK5 (Homo sapiens)
Construct: endogenous in cells
Assay comment: KAM-matrix competition in K562 lysate
Test parameters: read-out: RB50 (the source's name)
Assay metric: IC50 (nM)

{"Given smiles": "N#CCc1ccc(Nc2nc(NCCCN)cc(Nc3cc(C4CC4)[nH]n3)n2)cc1", "Test value": 729}

* * *

Measured target: FER (Homo sapiens, UniProt P16591)
Construct: endogenous in cells
Sequence (P16591 whole entry): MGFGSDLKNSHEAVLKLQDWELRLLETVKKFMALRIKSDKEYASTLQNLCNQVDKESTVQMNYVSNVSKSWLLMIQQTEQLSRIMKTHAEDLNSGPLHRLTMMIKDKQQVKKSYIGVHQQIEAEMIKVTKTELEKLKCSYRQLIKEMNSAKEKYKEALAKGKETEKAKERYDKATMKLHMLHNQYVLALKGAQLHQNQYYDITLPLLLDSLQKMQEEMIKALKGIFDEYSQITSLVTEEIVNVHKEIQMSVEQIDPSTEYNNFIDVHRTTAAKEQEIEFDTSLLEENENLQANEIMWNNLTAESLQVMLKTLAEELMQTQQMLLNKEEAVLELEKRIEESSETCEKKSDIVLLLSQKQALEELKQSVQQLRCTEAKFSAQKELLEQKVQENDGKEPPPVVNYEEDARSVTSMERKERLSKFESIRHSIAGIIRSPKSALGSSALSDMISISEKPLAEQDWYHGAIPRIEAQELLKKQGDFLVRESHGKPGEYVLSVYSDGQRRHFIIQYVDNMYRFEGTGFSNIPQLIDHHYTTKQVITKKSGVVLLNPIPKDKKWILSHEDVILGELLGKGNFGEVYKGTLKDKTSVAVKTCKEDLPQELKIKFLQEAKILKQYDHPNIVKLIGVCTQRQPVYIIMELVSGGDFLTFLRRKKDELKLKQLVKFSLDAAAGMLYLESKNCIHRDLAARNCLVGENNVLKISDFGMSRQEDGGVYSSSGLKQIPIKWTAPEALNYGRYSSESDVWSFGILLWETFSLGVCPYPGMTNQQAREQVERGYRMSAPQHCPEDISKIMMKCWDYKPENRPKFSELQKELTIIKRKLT
Assay comment: KAM-matrix competition in K562 lysate
Test parameters: read-out: RB50 (the source's name)

{"Given smiles": "N#CCc1ccc(Nc2nc(NCCCN)cc(Nc3cc(C4CC4)[nH]n3)n2)cc1", "IC50 / nM": 319}

* * *

Measured target: TP53RK (Homo sapiens)
Construct: endogenous in cells
Assay comment: KAM-matrix competition in K562 lysate
Test parameters: KAM 0.001-10 uM, read-out: RB50 (the source's name)
pIC50: −log10 of the molar value.

{"Given smiles": "N#CCc1ccc(Nc2nc(NCCCN)cc(Nc3cc(C4CC4)[nH]n3)n2)cc1", "pIC50": "< 5.00"}

* * *

Measured target: ACTR2 (Homo sapiens)
Construct: endogenous in cells
Assay comment: KAM-matrix competition in K562 lysate
Test parameters: KAM 0.001-10 uM, read-out: RB50 (the source's name)
pIC50: −log10 of the molar value.

{"Given smiles": "N#CCc1ccc(Nc2nc(NCCCN)cc(Nc3cc(C4CC4)[nH]n3)n2)cc1", "Measured target": "ACTR2 (Homo sapiens)", "pIC50": "< 5.00"}

* * *

Measured target: MAP2K3 (Homo sapiens)
Construct: endogenous in cells
Sequence (P46734 whole entry): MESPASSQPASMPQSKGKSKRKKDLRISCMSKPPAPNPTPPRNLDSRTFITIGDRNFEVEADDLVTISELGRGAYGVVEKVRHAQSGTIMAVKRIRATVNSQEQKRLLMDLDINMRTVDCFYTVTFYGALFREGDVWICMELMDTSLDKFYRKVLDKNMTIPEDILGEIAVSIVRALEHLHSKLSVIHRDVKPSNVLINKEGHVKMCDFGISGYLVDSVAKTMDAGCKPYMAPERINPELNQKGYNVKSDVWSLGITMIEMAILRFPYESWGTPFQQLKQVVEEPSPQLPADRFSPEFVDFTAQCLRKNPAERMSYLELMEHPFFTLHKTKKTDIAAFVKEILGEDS
Assay comment: KAM-matrix competition in K562 lysate
Test parameters: KAM 0.001-10 uM, read-out: RB50 (the source's name)
pIC50: −log10 of the molar value.
Assay metric: pIC50

{"Given smiles": "N#CCc1ccc(Nc2nc(NCCCN)cc(Nc3cc(C4CC4)[nH]n3)n2)cc1", "Test value": "< 5.00"}

* * *

Measured target: MAPK8 (Homo sapiens, UniProt P45983)
Construct: endogenous in cells; host or cells: K562
Assay comment: KAM-matrix competition in K562 lysate
Assay type: binding
Test parameters: read-out: RB50 (the source's name)
Method: Supplement 12953_2017_125_MOESM1_ESM.zip/MS_Supp Info.xlsx, sheet "KAM" | column: 10 uM KAM; 1 uM KAM; 0.1 uM KAM; 0.01 uM KAM; 0.001 uM KAM; RB50

{"Given smiles": "N#CCc1ccc(Nc2nc(NCCCN)cc(Nc3cc(C4CC4)[nH]n3)n2)cc1", "Value unit": "nM", "IC50": 2350}

Provenance of the data: paper PMC5513037
